Target: KMO mouse enzyme (Mus musculus, UniProt Q91WN4)
Construct: KMO enzyme prepared at Evotec from mouse liver (4-6 weeks old) via mitochondria isolation; from tissue; host or cells: mouse liver (4-6 weeks old), isolated mitochondria
Sequence (Q91WN4 whole entry): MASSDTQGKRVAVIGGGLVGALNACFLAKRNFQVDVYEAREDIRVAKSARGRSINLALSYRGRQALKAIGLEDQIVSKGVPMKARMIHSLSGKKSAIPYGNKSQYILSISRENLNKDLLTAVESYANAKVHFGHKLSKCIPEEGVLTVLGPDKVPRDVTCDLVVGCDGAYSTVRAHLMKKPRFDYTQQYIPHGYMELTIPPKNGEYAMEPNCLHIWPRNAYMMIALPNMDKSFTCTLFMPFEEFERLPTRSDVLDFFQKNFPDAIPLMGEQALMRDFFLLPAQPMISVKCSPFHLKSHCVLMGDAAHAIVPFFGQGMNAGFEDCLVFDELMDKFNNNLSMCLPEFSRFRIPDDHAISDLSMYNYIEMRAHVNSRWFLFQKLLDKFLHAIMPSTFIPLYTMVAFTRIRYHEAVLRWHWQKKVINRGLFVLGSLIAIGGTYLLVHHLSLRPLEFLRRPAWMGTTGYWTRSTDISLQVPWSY
Test: KMO mouse enzyme assay: L-Kynurenine hydroxylation to 3OH-KYN by LC/MS
Type: biochemical
Details: compound at 10 μM; KMO from mouse liver mitochondria; read-out: INH.Mouse @ 10 μM
reported.metric: inhibition at 10 µM (%)

Example results:
| chemical.string | result.number |
| --- | --- |
| CON=C(CCC(C)=O)c1ccc(Cl)c(Cl)c1 | 77.7 |
| COC(=O)CCC(=NO)c1ccc(Cl)c(Cl)c1 | 99.4 |
| CON=C(CCC(=O)Nc1cccnn1)c1ccc(Cl)c(Cl)c1 | 101 |
| CON=C(CCC(=O)NCCN1CCOCC1)c1ccc(Cl)c(Cl)c1 | 54.6 |
| CCO/N=C(\CCC(=O)O)c1ccc(Cl)c(Cl)c1 | 107 |
| CON=C(CCC(=O)Nc1ccc(C)nn1)c1ccc(Cl)c(Cl)c1 | 90.2 |
| CON=C(CCC(N)=O)c1ccc(Cl)c(Cl)c1 | 94.9 |
| CO/N=C(\CCC(=O)NC1CCN(C(=O)OC(C)(C)C)CC1)c1ccc(Cl)c(Cl)c1 | 75.2 |
| CON=C(CCC(=O)N(C)c1cccnc1)c1ccc(Cl)c(Cl)c1 | 62.5 |
| CON=C(CCC#N)c1ccc(Cl)c(Cl)c1 | 74.6 |

A: CON=C(CCC(=O)Nc1c(C)cc(C)nc1C)c1ccc(Cl)c(Cl)c1
B: CON=C(CCC(=O)Nc1ccccc1)c1ccc(Cl)c(Cl)c1
## Task Please indicate which entry, A or B , has the lower recorded inhibition at 10 µM value. Selection: enter the item's label.
## Result A

* * *

Biological target: KMO mouse enzyme (Mus musculus)
Construct: KMO enzyme prepared at Evotec from mouse liver (4-6 weeks old) via mitochondria isolation; from tissue; host or cells: mouse liver (4-6 weeks old), isolated mitochondria
Experiment: KMO mouse enzyme assay: L-Kynurenine hydroxylation to 3OH-KYN by LC/MS
Type: biochemical
Conditions: compound at 10 μM; KMO from mouse liver mitochondria; read-out: INH.Mouse @ 10 μM
reported.metric: inhibition at 10 µM (%)

Example results:
| molecule | reported.metric | unit.of.measure | result.number |
| --- | --- | --- | --- |
| CO/N=C(\CCC(=O)OC(C)C)c1ccc(Cl)c(Cl)c1 | inhibition at 10 µM | % | 102 |
| CON=C(CCC(=O)NC1CCNC1)c1ccc(Cl)c(Cl)c1 (stereo not drawn) | inhibition at 10 µM | % | 74.3 |

I: CO/N=C(\CCC(=O)O)c1cc(Cl)cc(Cl)c1
II: CON=C(CCc1nc2cnccc2[nH]1)c1ccc(Cl)c(Cl)c1
## Task Compare I and II by numeric inhibition at 10 µM and name the larger one. Selection: enter the item's label.
## Result I

* * *

Target: KMO mouse enzyme (Mus musculus, UniProt Q91WN4)
Construct: KMO enzyme prepared at Evotec from mouse liver (4-6 weeks old) via mitochondria isolation; from tissue; host or cells: mouse liver (4-6 weeks old), isolated mitochondria
Assay: KMO mouse enzyme assay: L-Kynurenine hydroxylation to 3OH-KYN by LC/MS
Format: biochemical
Conditions: compound at 10 μM; KMO from mouse liver mitochondria; read-out: INH.Mouse @ 10 μM
Where a name gives a salt, the structure may show the parent alone.
reported.metric: inhibition at 10 µM (%)

Example results:
| compound | unit.of.measure | inhibition at 10 µM |
| --- | --- | --- |
| CON=C(CCC(=O)Nc1ccncc1)c1ccc(Cl)c(Cl)c1 | % | 76.5 |
| CON=C(CCCC#N)c1ccc(Cl)c(Cl)c1 | % | 71.5 |
| CON=C(CCC(=O)NCc1cccnc1)c1ccc(Cl)c(Cl)c1 | % | 77.1 |
| CON=C(CCCC(=O)O)c1ccc(Cl)c(Cl)c1 | % | 78.3 |

1: CNC(=O)CC/C(=N\OC)c1ccc(Cl)c(Cl)c1
2: NCCON=C(CCC(=O)O)c1ccc(Cl)c(Cl)c1 [trifluoroacetic acid salt]
## Task Please indicate which entry, 1 or 2 , has the lower recorded inhibition at 10 µM value. Selection: enter the item's label.
## Result 2
(2: 49.5%, 1: 93.7%)
